# assay.system: T1, cynomolgus IL-18BP (cynomolgus monkey)
# T1 construct: also called cyno IL-18BP; cyIL-18BP
# T1 chain: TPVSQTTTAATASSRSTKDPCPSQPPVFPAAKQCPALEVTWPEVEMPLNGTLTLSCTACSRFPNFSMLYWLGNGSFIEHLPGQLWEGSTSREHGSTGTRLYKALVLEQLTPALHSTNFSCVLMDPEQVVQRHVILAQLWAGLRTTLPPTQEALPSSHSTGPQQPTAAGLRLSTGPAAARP
# test: BLI, apparent KD
I'd be grateful if you could share measured pKd for these entries.
Hey, just a heads up that pKd is the negative log base 10 of the concentration in molar.

Field request: pKd | item: SA301a HC-Y100R (antibody, V domains shown) VH: QVQLQESGPGLVKPSQTLSLTCTVSGYSITSDYNSHWIRQPPGKGLEWIGYIHYSGSTNYNPSLKSRVTISRDTSKNQFSLKLSSVTAADTAVYYCARNYGSIRVNYFDYWGQGTLVTVSS VL: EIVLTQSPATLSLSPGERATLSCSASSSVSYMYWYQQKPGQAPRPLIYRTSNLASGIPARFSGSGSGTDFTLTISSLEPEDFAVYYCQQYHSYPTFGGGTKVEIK 8.69

May I ask what pKd has been recorded for SA301a HC-V100aE (antibody, name in Kabat numbering, V domains shown, IgG1 kappa) VH: QVQLQESGPGLVKPSQTLSLTCTVSGYSITSDYNSHWIRQPPGKGLEWIGYIHYSGSTNYNPSLKSRVTISRDTSKNQFSLKLSSVTAADTAVYYCARNYGSIYENYFDYWGQGTLVTVSS VL: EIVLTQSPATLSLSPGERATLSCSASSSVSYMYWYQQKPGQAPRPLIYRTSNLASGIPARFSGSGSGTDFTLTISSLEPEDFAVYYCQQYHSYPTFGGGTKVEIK ? 9.66

Tell me the measured pKd of SA301a HC-V100aI (antibody, name in Kabat numbering, V domains shown, IgG1 kappa) VH: QVQLQESGPGLVKPSQTLSLTCTVSGYSITSDYNSHWIRQPPGKGLEWIGYIHYSGSTNYNPSLKSRVTISRDTSKNQFSLKLSSVTAADTAVYYCARNYGSIYINYFDYWGQGTLVTVSS VL: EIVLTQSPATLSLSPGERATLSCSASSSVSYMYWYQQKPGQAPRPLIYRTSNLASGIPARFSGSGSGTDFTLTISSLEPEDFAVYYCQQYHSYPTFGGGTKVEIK , please. 9.60

The reported measurements were obtained from patent US20250368745A1.
